// provenance: ChEMBL document CHEMBL1201862

Listing of entries alongside the reported IC50.
Molecular target: Fatty acid synthase (Homo sapiens, UniProt P49327)
Sequence (P49327 whole entry, the tested form may be a part): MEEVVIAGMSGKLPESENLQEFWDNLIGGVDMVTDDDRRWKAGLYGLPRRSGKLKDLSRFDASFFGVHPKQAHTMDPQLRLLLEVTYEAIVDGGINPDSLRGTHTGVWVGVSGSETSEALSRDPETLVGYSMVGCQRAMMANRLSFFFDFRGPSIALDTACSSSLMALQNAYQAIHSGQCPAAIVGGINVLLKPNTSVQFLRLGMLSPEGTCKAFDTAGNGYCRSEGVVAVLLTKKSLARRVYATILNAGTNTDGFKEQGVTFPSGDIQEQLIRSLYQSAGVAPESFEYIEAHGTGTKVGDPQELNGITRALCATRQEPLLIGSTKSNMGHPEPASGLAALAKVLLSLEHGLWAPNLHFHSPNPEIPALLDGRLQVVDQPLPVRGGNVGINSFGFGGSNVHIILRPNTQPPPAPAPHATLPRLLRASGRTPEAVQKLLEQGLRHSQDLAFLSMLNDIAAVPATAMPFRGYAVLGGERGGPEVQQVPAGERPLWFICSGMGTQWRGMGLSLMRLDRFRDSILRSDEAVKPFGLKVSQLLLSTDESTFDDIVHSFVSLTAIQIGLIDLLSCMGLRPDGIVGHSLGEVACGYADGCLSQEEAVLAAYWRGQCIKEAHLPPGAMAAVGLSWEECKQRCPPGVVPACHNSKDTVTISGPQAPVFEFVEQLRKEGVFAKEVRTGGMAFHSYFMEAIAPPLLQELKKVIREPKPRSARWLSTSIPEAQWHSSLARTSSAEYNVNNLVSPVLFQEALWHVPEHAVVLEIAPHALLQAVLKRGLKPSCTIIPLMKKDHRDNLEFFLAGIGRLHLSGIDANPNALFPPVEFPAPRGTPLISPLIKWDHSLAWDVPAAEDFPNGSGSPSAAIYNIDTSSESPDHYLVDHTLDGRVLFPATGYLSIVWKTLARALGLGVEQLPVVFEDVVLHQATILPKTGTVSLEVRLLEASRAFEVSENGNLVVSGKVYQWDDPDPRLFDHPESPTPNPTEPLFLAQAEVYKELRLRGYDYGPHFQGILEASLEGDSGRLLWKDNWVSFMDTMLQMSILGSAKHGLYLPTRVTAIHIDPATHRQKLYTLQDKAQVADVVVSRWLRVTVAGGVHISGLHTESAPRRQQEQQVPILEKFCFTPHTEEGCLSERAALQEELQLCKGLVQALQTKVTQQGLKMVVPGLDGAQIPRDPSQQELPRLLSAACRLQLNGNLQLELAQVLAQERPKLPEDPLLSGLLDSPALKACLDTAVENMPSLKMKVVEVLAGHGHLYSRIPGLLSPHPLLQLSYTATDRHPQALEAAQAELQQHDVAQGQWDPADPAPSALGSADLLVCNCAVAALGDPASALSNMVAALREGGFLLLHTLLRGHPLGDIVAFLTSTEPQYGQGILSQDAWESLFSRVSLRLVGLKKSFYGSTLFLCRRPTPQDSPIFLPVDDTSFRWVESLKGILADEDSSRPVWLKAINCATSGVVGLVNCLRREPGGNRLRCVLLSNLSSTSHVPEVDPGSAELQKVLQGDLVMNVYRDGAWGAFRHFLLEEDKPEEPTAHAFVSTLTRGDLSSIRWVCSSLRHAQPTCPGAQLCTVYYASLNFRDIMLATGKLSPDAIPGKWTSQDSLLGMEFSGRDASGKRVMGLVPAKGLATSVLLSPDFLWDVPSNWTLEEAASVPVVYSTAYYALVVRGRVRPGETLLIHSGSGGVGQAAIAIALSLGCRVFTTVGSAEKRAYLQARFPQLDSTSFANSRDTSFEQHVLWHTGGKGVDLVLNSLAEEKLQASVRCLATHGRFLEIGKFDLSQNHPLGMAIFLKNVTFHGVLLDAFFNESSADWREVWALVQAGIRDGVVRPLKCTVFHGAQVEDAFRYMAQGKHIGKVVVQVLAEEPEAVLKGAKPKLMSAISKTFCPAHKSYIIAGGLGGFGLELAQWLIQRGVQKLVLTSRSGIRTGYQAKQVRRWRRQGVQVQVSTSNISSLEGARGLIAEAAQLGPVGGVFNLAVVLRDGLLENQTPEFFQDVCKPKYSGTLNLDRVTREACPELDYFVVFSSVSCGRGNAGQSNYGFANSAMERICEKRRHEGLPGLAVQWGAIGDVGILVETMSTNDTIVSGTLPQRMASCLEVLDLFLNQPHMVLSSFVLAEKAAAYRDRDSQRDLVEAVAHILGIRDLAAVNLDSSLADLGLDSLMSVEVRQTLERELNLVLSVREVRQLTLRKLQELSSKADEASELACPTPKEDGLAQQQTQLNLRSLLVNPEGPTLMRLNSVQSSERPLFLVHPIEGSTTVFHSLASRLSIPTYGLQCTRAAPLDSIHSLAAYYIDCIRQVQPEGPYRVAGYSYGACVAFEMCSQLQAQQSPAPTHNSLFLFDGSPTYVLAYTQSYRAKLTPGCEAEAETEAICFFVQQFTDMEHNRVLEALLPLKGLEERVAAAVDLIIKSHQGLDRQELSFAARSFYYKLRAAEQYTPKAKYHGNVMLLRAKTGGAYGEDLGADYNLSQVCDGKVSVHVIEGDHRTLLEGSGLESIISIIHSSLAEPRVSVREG
Test: FAS thioesterase domain inhibitors, dose response, biochemical, endpoint fluorescence intensity, uHTS hits (AID 624327);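 note: fluorescence from hydrolysis of an O-methyl fluorescein acyl ester substrate by the enzyme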
Format: functional
Activity calls are given as the source filed them. Cut-off read from the data, not from the text of the source: active = IC50 of 20 µM or less and inactive = more.

Examples from the recorded data:
>  <mol smiles>
COc1ccc(NC(=O)COC(=O)c2cc([N+](=O)[O-])ccc2N2CCOCC2)cc1

>  <test system>
Fatty acid synthase (Homo sapiens, UniProt P49327)

>  <observed result>
2.92 µM (active)

$$$$
>  <mol smiles>
CN(C)CCCNC(=O)/C(=C\C=C\c1ccccc1)NC(=O)c1ccc([N+](=O)[O-])cc1

>  <test system>
Fatty acid synthase (Homo sapiens, UniProt P49327)

>  <observed result>
0.87 µM (active)

$$$$
>  <mol smiles>
CN(Cc1ccccc1)C(=O)COC(=O)c1cc(Cl)nc(Cl)c1

>  <test system>
Fatty acid synthase (Homo sapiens, UniProt P49327)

>  <observed result>
8.07 µM (active)

$$$$

Given O=C(CCC(=O)Nc1ccc(Br)cc1)N/N=C/c1cc([N+](=O)[O-])ccc1O , state its recorded IC50.
12.9 µM (active)

Can you share its IC50? I mean this molecule: COc1cc(C(=O)N/N=C/c2coc3ccc(Cl)cc3c2=O)ccc1O
18.5 µM (active)

Could you tell me which IC50 is on file for O=C(N/C(=C/c1ccccc1)C(=O)N1CCOCC1)c1ccc([N+](=O)[O-])cc1 ?
16.8 µM (active)

Value lookup for IC50; key = O=C(COC(=O)c1cc([N+](=O)[O-])ccc1NCCO)c1ccccc1
8.17 µM (active)
